Below, each of the binders is paired with its reported kon value.
- assayedSystem: T1, human CD47ECD His tagged protein (human, UniProt Q08722 19-139, limits assumed)
- T1 construct: extracellular domain; also called HuCD47ECD 8xHis; monovalent CD47ECD His tagged protein
- T1 sequence (Q08722 19-139 limits assumed): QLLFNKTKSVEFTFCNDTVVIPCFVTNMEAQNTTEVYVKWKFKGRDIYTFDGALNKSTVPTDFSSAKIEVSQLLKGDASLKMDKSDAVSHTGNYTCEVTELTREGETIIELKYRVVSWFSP
- experimentNotes: SPR (Biacore 3000); antibody captured on anti-human Fc chip, monovalent HuCD47ECD 8xHis injected
Give a bare numeral; the unit M⁻¹ s⁻¹ is implied.

Examples with their reported kon follow.
| binder | propertyLabel | readoutUnits | reading |
| --- | --- | --- | --- |
| D36S4 mouse/human chimeric anti-human CD47 antibody (antibody, V domains shown, also called chimeric D36S4 antibody; D36S4 H/L) VH: EVKLEESGGGLVQPGGSMKLSCVASGFTFSRYWMNWVRQSPDKGLEWVAQIRLKSDNYETHYAESVKGRFTISRDDSKSSVYLQMNNLRAEDTGIYYCIEEGGYYVPFAYWGQGTLVTVSA VL: DIVVSQSPSSLAVSAGEKVTMSCKSSQSLFKSRTRKNYLAWYQQRPGQSPKLLIYWASIRESGVPDRFTGSGSGTEFTLTISSVQAEDLAVYYCKQSYYLLTFGAGTKLELK | kon | M⁻¹ s⁻¹ | 337000 |
| AB6.12, a humanized version of anti-CD47 antibody 2A1 from Celgene (antibody, from another filing, V domains shown) VH: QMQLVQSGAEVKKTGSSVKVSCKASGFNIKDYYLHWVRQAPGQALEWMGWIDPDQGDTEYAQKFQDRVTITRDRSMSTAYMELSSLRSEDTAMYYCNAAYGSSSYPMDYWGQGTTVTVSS VL: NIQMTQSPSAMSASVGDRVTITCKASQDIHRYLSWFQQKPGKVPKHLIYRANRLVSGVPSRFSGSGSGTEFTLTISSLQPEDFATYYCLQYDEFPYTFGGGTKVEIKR | kon | M⁻¹ s⁻¹ | 881000 |
| D125S3 mouse/human chimeric anti-human CD47 antibody (antibody, V domains shown, also called chimeric D125S3) VH: EVQLVESGGDLVKPGGSLNLSCAASGFTFSDYGMSWVRQTPDMRLEWVATISKYGTYTSYPDSVKGRFTISRSNAKNTLYLQMSSLKSADTALYYCARRFFGNYNYWYFDVWGAGTTVTVSS VL: DIVLTQSPASLAVSLGQRATFSCRASESVDEFGISYIHWYKKSPGQPPKLLIYRASTLESGISARFSGSGSGTDFTLTINPVETDDVATYYCQQSNQDPLTFGAGTKLELK | kon | M⁻¹ s⁻¹ | 163000 |

The recorded kon for entry D96S1 mouse/human chimeric anti-human CD47 antibody (antibody, V domains shown, also called chimeric D96S1) VH: EVQLQQSGAELVKPGASVKLSCTASGFNIKDTYIHWVKQRPEQGLEWIGRIDPANGNIKSDPKFQGKATVTADTSSNTAYLQLSSLTSEDTAVYYCARSYGSSFASWGQGTLVTVSP VL: DIQMTQTTSSLSASLGDRVTISCRASQDISNHLNWYQQKPDGAVKLLIYYTSRLHSGVPSRFSGSGSGTDYSLTISNLEQEDIATYFCQQGSTFPYTFGGGTKLEIK equals 80900

get_value(item= D8S1 mouse/human chimeric anti-human CD47 antibody (antibody, V domains shown, also called chimeric D8S1) VH: EVQLQQSVAELVRPGASVKLSCTVSGFNIKNTYIYWVKQRPEQGLEWIGRIDPANGNTKDAPKFQGKATMTADTSSNTAYLQLSSLTSEDTAIYYCARGYGSGFAYWGQGTLVTVSA VL: DIQMTQTTSSLSASLGDRVTISCRASQDISNHLNWYQQKPDGIVKLLIYYTSRLHSGVPSRFSGSGSGTDYSLTISNLEQEDIATYFCQQGSTLPFTFGSGTKLEIK , readout=kon) returns 150000

Kindly note the recorded kon for D41S2 mouse/human chimeric anti-human CD47 antibody (antibody, V domains shown, also called chimeric D41S2) VH: EVQLQQSVAELVRPGASVKLSCTPSGFNIKNTYIYWVRQRPEQGLEWIGRIDPANGNTKDAPKFQGKATMTADTSSNTAYLQLSSLTSEDTAIYYCARGYGSGFAYWGQGTLVTVSA VL: DIQMTQTTSSLSASLGDRVTISCRASQDISNHLNWYQQKPDGTVKLLIYYTSRLHSGVPSRFSGSGSGTDYSLTISNLEQEDIATYFCQQGSTLPFTFGSGTKLEIK , which is 145000
